Experiment: Pharmacokinetics after intra-duodenal injection (ID) in anesthetized rats, model mimicking enteric-coated oral dosage form, plasma LC-MS
Assay type: in vivo, rat
Conditions: rat, plasma, other: intra-duodenal injection (ID); ID; 0.3 mL of 10 mg/mL A(1-7) with 0.5 mg/mL captopril (as printed in the text on Table 5), 10 mg/mL LLC, 400 mM Citrate, 150 mM NaCl pH 3.5; six rats; range over the group; read-out: Half-lives
Assay readout: Half-Life

// Half-Life lookup, key: CC[C@H](C)[C@H](NC(=O)[C@H](Cc1ccc(O)cc1)NC(=O)[C@@H](NC(=O)[C@H](CCCNC(=N)N)NC(=O)[C@@H](N)CC(=O)O)C(C)C)C(=O)N[C@@H](Cc1c[nH]cn1)C(=O)N1CCC[C@H]1C(=O)O
7.97 to 25.6 min
